Biological target: Receptor-type tyrosine-protein kinase FLT3 (Homo sapiens)
Sequence (P36888 whole entry): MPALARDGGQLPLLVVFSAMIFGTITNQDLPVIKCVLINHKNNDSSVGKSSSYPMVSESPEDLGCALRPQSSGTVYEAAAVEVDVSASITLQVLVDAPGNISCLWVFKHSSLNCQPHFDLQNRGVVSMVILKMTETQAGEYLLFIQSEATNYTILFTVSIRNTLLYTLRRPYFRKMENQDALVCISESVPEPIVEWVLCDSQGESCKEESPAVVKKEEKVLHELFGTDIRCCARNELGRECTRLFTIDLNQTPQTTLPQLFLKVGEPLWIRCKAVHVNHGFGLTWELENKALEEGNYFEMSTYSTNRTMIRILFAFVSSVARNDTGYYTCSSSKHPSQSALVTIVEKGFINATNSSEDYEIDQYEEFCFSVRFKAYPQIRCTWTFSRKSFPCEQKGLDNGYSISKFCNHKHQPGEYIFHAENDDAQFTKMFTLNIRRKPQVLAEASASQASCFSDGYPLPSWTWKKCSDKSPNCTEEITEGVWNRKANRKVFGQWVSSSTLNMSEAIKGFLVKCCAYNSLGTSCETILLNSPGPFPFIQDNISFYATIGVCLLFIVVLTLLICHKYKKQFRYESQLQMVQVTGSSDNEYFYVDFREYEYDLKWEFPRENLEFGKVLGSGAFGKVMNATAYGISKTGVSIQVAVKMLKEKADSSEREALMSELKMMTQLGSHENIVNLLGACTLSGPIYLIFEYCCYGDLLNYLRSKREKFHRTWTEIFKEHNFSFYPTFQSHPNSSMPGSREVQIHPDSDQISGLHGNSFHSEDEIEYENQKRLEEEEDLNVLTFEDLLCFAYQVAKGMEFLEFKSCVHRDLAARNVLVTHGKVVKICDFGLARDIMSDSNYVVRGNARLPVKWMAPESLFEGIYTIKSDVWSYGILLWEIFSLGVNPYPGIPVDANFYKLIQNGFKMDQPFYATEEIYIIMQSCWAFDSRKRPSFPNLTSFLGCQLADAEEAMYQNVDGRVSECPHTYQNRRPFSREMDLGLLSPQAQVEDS
Assay: Inhibition of recombinant FLT3 (unknown origin) by TR-FRET assay
reported.property: IC50

compound	IC50
O=c1cc(O)cc2oc(-c3ccc(O)c(O)c3)c(O[C@@H]3O[C@H](CO)[C@@H](O)[C@H](O)[C@H]3O)c(O)c1-2 [Quercetin 3-O-beta-D-glucoside]	> 10 µM
O=c1cc(O)cc2oc(-c3ccc(O)c(O)c3)c(OC3O[C@H](CO)[C@@H](O)[C@H](O)[C@@H]3O)c(O)c1-2 (stereo partly drawn)	> 10 µM

Could you now look at the following compound, please?
Given `O=c1cc(O)cc2oc(-c3ccc(O)c(O)c3)c(O[C@@H]3O[C@H](CO)[C@H](O)[C@H](O)[C@H]3O)c(O)c1-2` , state its recorded IC50.
> 10 µM
